Each recorded value in this set is attributed to PubChem BioAssay.

- Test protocol: Pseudomonas biofilm growth suppression – PAO1 strain, BacTiter-Glo luminescence, LB-PBS, primary screen (AID 1144)
- Settings: P. aeruginosa PAO1 biofilm, 12 h, higher = more signal
Let's look at some molecules and their measured z-score.
Experimental endpoint: z-score

INSERT INTO results (molecule, experimental_endpoint, readout_number) VALUES
  ('COc1ccc(CCNC(=O)[C@@]2(C)c3ccccc3C(=O)N(c3ccc(C)cn3)[C@H]2c2ccc(CO)cc2)cc1', 'z-score', -0.604),
  ('C=CCN1C(=O)[C@]2(Cc3ccccc3)N=C(c3ccc(OCCCO)cc3)O[C@@H]2c2ccccc21', 'z-score', 0.000807),
  ('O=C(CS)NCCCCCNC(=O)[C@H]1C[C@H]2C(=O)NCC(=O)N2[C@H]1c1ccc(O)cc1', 'z-score', -0.196),
  ('O=C1C2C=CC(C(O)c3c(F)cccc3Cl)N(Nc3ccccc3F)C2C(=O)N1c1ccccc1 (stereo unspecified)', 'z-score', -0.563),
  ('C=C(CCCC)/C(=C/C[C@H](OC(=O)c1ccncc1)c1ccc(OCCO)cc1)c1cc(C(=O)OC)ccc1OC', 'z-score', 0.282),
  ('CC(C)C(=C=CC[C@H](O)c1ccc(CO)o1)CCO', 'z-score', -0.0587);

---

- Target or system: Torsin-1A (Homo sapiens) (UniProt O14656)
- Sequence (O14656 whole entry, looked up): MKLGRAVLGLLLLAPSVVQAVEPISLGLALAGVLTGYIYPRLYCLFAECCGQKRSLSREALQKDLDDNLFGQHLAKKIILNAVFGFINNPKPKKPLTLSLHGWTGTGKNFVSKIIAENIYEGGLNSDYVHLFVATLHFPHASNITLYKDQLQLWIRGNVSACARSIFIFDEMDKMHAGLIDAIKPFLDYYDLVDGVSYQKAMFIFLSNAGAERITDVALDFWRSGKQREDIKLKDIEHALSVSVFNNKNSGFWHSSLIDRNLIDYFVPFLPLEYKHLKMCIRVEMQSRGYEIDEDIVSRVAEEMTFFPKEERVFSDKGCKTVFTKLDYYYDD
- Test protocol: TOR1A wild-type binding on microarray – cell lysate, small-molecule microarray, lysate, 635/667 nm, primary screen (AID 1149)
- Settings: COS7 hTOR1A-WT lysate, 635 nm fluorescence, higher = more signal
Measured composite z-score values are reported for all entries that follow.
Experimental endpoint: composite z-score

INSERT INTO results (compound, experimental_endpoint, readout_number) VALUES
  ('C[C@H]1C2[C@H](Cc3ccccc3)NC(=O)[C@]23C(=O)NCC(=O)N2CCC[C@H]2C(=O)NC/C=C/CCC/C=C/C3[C@@H]2O[C@]12C (stereo partly drawn)', 'composite z-score', -0.793),
  ('C=CCN1C(=O)[C@]2(O[C@H](CCO)[C@@H]([Si](C)(C)c3ccc(OC)cc3)[C@@H]2C)c2cc(N(C=O)c3ccccc3)ccc21', 'composite z-score', -0.376),
  ('COCCOC(=O)N1C(=O)[C@@]2(c3cc(C#CC4=CCCCC4)ccc31)[C@H](C(N)=O)[C@H]1C(=O)O[C@H](c3ccccc3)[C@H](c3ccccc3)N1[C@@H]2c1ccc(O)cc1', 'composite z-score', 1.03);

---

- Test protocol: growth effects on S. cerevisiae YJM789 – YJM789 clinical isolate, OD600, 24 h, basal, primary screen (AID 1089);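 note: growth of clinical yeast isolate S. cerevisiae YJM 789 seeded 1000 cells per well; test concentration not given here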
- Settings: higher = more signal, called active from +8 up or from −8 down
Short version: z-score at least 0.07 is MET, less is NOT MET.

INSERT INTO results (molecule, assigned_label) VALUES
  ('COc1ccc([Si](C)(C)[C@@H]2[C@@H](CCn3cc([C@H](O)c4ccccc4)nn3)O[C@]3(C(=O)N(Cc4cccc(N5CCC5=O)c4)c4ccccc43)[C@H]2C)cc1', 'NOT MET'),
  ('COC(=O)[C@@]1(Cc2ccc(F)cc2)[C@H]2c3cc(C(=O)N(C)C)n(Cc4ccc(C)o4)c3C[C@H]2CN1C(=O)c1ccccc1', 'NOT MET'),
  ('N#Cc1ccc(C(O)C2C=CC3C(=O)N(c4ccccc4)C(=O)C3N2Nc2ccccc2F)cc1 (centres undefined)', 'NOT MET'),
  ('CCOC(=O)C[C@H]1[C@H](OC(=O)c2ccc(C(=O)c3ccccc3)cc2)[C@@H](NC(=O)Cc2ccc(OC)cc2)c2cc(OCCCO)ccc2N1C(=O)c1ccc2ccccc2n1', 'MET'),
  ('O=C1C2C=CC(C(O)C=Cc3ccc([N+](=O)[O-])cc3)N(Nc3ccccc3F)C2C(=O)N1c1ccccc1 (centres undefined)', 'MET'),
  ('COC(=O)[C@@]1(Cc2ccc(OC)cc2)[C@H]2c3cc(C(=O)N4CCCC4)n(Cc4nc5ccccc5[nH]4)c3C[C@H]2CN1C(=O)c1ccccc1', 'NOT MET'),
  ('COCCCNC(=O)[C@@H]1c2ccccc2C(=O)N(Cc2ccccc2OC)[C@H]1c1ccc(CO)cc1', 'MET'),
  ('O=C1OCCC/C=C\[C@H]2OC34C=CCN(c5ccc6ccccc6c5)C(=O)[C@H]3N(CCCCCO)C(=O)[C@@H]4C12 (some centres undefined)', 'NOT MET'),
  ('O=C(NC1CC1)[C@@H]1c2ccccc2C(=O)N(C2Cc3ccccc3C2)[C@H]1c1ccc(CO)cc1', 'NOT MET'),
  ('COC(=O)[C@@]1(Cc2ccc(OC)cc2)[C@H]2c3cc(C(=O)N4CCCC4)n(CCCNc4ncc(C(F)(F)F)cc4Cl)c3C[C@H]2CN1C(=O)c1ccccc1', 'NOT MET'),
  ('COCCOC(=O)N1C(=O)[C@@]2(c3cc(C#Cc4ccc(OC)cc4)ccc31)[C@H](c1ccc(O)cc1)N1[C@H](c3ccccc3)[C@H](c3ccccc3)OC(=O)[C@H]1[C@@H]2C(=O)Nc1nc2ccccc2s1', 'MET'),
  ('COC(=O)C(CC#Cc1ccc2c(c1)[C@]1(C(=O)N2)[C@H](c2ccccc2OCCO)N2[C@H](c3ccccc3)[C@H](c3ccccc3)OC(=O)[C@H]2[C@@H]1C(=O)O)C(=O)OC', 'MET'),
  ('COCCOC(=O)N1C(=O)[C@@]2(c3ccccc31)[C@H](C(=O)N1CCc3cc(OC)c(OC)cc3C1)[C@H]1C(=O)O[C@H](c3ccccc3)[C@H](c3ccccc3)N1[C@@H]2c1ccc(O)cc1', 'NOT MET'),
  ('CN1C(=O)C2C=CC(C(O)c3ccc(F)cc3)N(N(c3ccccc3)c3ccccc3)C2C1=O (centres undefined)', 'MET'),
  ('COc1ccc(C#Cc2ccc3c(c2)[C@]2(C(=O)N3)[C@H](c3ccc(O)cc3)N3[C@H](c4ccccc4)[C@H](c4ccccc4)OC(=O)[C@H]3[C@@H]2C(=O)N2CCc3cc(OC)c(OC)cc3C2)cc1', 'MET'),
  ('CCOC(=O)C[C@H]1[C@H](OC(=O)c2cc3ccccc3oc2=O)[C@@H](NC(=O)CC(C)C)c2cc(OCCCO)ccc2N1C(=O)c1ccccc1', 'NOT MET'),
  ('CC(C)[Si](C#C[Si](C(C)C)(C(C)C)C(C)C)(O[C@H](C)c1cn(Cc2ccccc2)nn1)C(C)C', 'MET'),
  ('CCCCC(=C=CC[C@@H](O)c1ccc(CO)o1)CCO', 'MET'),
  ('COc1cc(CO)cc(I)c1O[C@H]1C=C(C(=O)NCCO)C[C@@H](NC[C@@H]2CCCO2)[C@@H]1O', 'NOT MET'),
  ('CC(CO)N1C(=O)[C@@H]2C3C(=O)OCCC/C=C\[C@H]3OC23C=CCN(CCN2CCOCC2)C(=O)[C@@H]13 (some centres undefined)', 'NOT MET'),
  ('CN(C)CCCCCCNC(=O)[C@@H]1C[C@@H]2C(=O)N3CCC[C@H]3C(=O)N2[C@@H]1c1ccc(O)cc1', 'NOT MET'),
  ('CCOC(=O)C1=C[C@@H](C(C)C)N(S(=O)(=O)c2ccc(C)cc2)[C@H]1c1ccccc1F', 'NOT MET'),
  ('C=C(C)[C@@H]1CC=C(C(O)C2C=CC3C(=O)NC(=O)C3N2Nc2ccc(Cl)cc2Cl)CC1 (some centres undefined)', 'NOT MET'),
  ('O=C1C2C=CC(C(O)COCc3ccccc3)N(Nc3ccc([N+](=O)[O-])cc3)C2C(=O)N1c1ccccc1 (centres undefined)', 'NOT MET');
